Readings of logP for the listed compounds
Test: Octanol/Water partition coefficient, logP of the compound
Type: physicochemical
quantity kind: logP

                                entry_smiles  result
 0             CC(=O)/C(=C/c1ccccc1Cl)C(N)=O    1.38
 1   CC(=O)/C(=C/c1ccccc1[N+](=O)[O-])C(N)=O    1.09
 2  CCc1ccc(/C=C(/C(C)=O)C(N)=O)cc1[N+](=O)[O-]    1.31
 3     COc1cc(/C=C(/C(C)=O)C(N)=O)cc(OC)c1OC    1.41
 4     CC(=O)/C(=C/c1ccc(C(F)(F)F)cc1)C(N)=O    2.43
 5  COc1cc(/C=C/C(=O)CC(=O)/C=C/c2ccc(O)c(OC)c2)ccc1O    3.03
 6          CC(=O)/C(=C/c1ccc(C#N)cc1)C(N)=O    1.13
 7           CCc1ccc(/C=C(/C(C)=O)C(N)=O)cc1    1.99
 8              CC(=O)/C(=C/c1ccccc1F)C(N)=O    1.66
 9          CC(=O)/C(=C/c1cccc(C#N)c1)C(N)=O    1.15
10           CC(=O)/C(=C/c1ccc(Br)cc1)C(N)=O    1.62
11               CC(=O)/C(=C/c1ccccc1)C(N)=O     1.6
12         COc1cccc(/C=C(/C(C)=O)C(N)=O)c1OC     1.3
13           CC(=O)/C(=C/c1ccc(Cl)cc1)C(N)=O    1.88
14            CC(=O)/C(=C/c1cccc(F)c1)C(N)=O    1.49
15             CC(=O)/C(=C/c1ccccc1Br)C(N)=O    1.62
16            CC(=O)/C(=C/c1ccc(O)cc1)C(N)=O    0.94
17            CC(=O)/C(=C/c1ccccc1C#N)C(N)=O    1.09
18  CC(=O)/C(=C/c1cccc([N+](=O)[O-])c1)C(N)=O    1.15
19   CC(=O)/C(=C/c1ccc(OCc2ccccc2)cc1)C(N)=O    2.72
20            CC(=O)/C(=C/c1ccc(C)cc1)C(N)=O    1.68
21        CC(=O)/C(=C/c1ccc2c(c1)OCO2)C(N)=O    1.23
22           CC(=O)/C(=C/c1cccc(Br)c1)C(N)=O    1.73
23  CC(=O)/C(=C/c1ccc([N+](=O)[O-])cc1)C(N)=O    1.13
24                O=C(/C=C/c1ccccc1)c1ccccc1    3.29
